Provide the reported solubility kinetic of each item.
- Experimental Conditions: buffer; pH 7.4; 200.0 µM
Entry rule: numbers only, all in µg/mL.

Assign solubility kinetic to the following record: COc1ccc(NS(=O)(=O)c2ccc(C)cc2)c([N+](=O)[O-])c1 44.1

Output measured solubility kinetic for this item: COC(=O)c1ccc(Oc2nc(NC(C)C)nc(NC(C)C)n2)cc1 1.4

Provide only the value of recorded solubility kinetic for COc1ccc(NC(=O)c2sccc2-n2cccc2)cc1 3.4

* * *

- Experimental Conditions: buffer; pH 7.4; 200.0 µM
Can you tell me solubility kinetic for the items I'm about to list?
Answer format: numeric, µg/mL implied, no suffix.

Tell us which solubility kinetic value is on record for COc1ccc(-c2noc(CCC(=O)Nc3cccnc3)n2)cc1 3.8

For the compound Cc1ccc2c(COC(=O)CNC(=O)c3ccco3)cc(=O)oc2c1C , give its measured solubility kinetic value. 13.1

Return the recorded solubility kinetic value; entry: C=CCNC(=S)/N=c1/ccccn1CCC 35.1

Tell me measured solubility kinetic for CN(C(=O)c1ccc(-c2ccccc2)cc1)C1CCCCC1 please. 1.5

Give the reported solubility kinetic for this compound. CCOc1ccc(NC(=O)Nc2ccc3c(c2)nc(C)n3C)cc1 2.5

Look up and state reported solubility kinetic for O=C(Nc1ccc2c(c1)OCCO2)c1ccc(Cl)cc1 2.1

Supply solubility kinetic value. Item: FC(F)(F)c1ccccc1-c1nc(-c2ccncc2)no1 7.6

Annotate the compound Cc1ccc(NS(=O)(=O)c2ccc(C(=O)NCc3ccc(S(N)(=O)=O)cc3)cc2)cc1 with its measured solubility kinetic. 51.7

Check the records and state solubility kinetic for O=C(NCc1ccccc1Cl)[C@@H]1CCCN1S(=O)(=O)c1ccc(Cl)cc1 38.4

Indicate the recorded solubility kinetic value for this compound: COc1ccc(-c2ccc3c(N)c(C(=O)NC(C)C)sc3n2)cc1OC 30.1

Output solubility kinetic of CCc1cccc(C)c1N=Cc1c(O)c2ccccc2oc1=O 0.9

Given the compound COc1ccc(NC(=O)NCc2ccco2)cc1OC , write its reported solubility kinetic. 37.6

State, in one line, measured solubility kinetic of COc1ccc(NC(=S)Nc2ccc3nccnc3c2)cc1 22.8

For the compound O=C(Cc1nc2ccccc2[nH]1)c1ccc(Cl)cc1 , report solubility kinetic. 24.2

Determine its reported solubility kinetic: CN1CCN(C(=S)c2cn(Cc3ccccc3)c3ccccc23)CC1 30.8

// fetch solubility kinetic given entry O=c1cc(COc2ccc(Cl)c(Cl)c2)nc2sccn12 1.1

Return solubility kinetic (reported value) for this compound: Cc1cccc(-n2c(C)c(C)c3c(N)ncnc32)c1 32.7

For the compound COc1ccc(Nc2ncnc3sc(-c4ccccc4)cc23)c(OC)c1 , report solubility kinetic. 0.6

Supply recorded solubility kinetic for O=C(c1ccco1)N1CCn2cccc2C1c1ccccc1 (centres undefined) here. 42

Using the record for O=C(O)c1ccc(S(=O)(=O)N(Cc2ccccc2)Cc2ccccc2)cc1 , state its measured solubility kinetic. 19.5

Provide measured solubility kinetic value, entry: CCOC(=O)c1[nH]c(C)c(CC(C)C)c1C 24

Tell me measured solubility kinetic for CCOC(=O)c1ccc(NC(=O)Nc2ncccc2C)cc1 please. 0.6

For the compound COC(=O)CC1C(=O)NCCN1C(=O)c1cc([N+](=O)[O-])ccc1Cl (centres undefined) , report solubility kinetic. 52.9

Tell us which solubility kinetic value is on record for Cc1ccc(O)c(NC(=O)c2onc(C)c2Cl)c1 6.2

Give me measured solubility kinetic, please, for this compound: Cc1cc(C)nc(NC(=O)c2cccc(Br)c2)n1 39.8

Supply solubility kinetic value. Item: c1ccc(-c2nc(-c3cccnc3)cs2)cc1 21.4

Return the recorded solubility kinetic value; entry: CCOc1cc(/C=C/C(=O)OCC(=O)NCC2CCCO2)cc(Cl)c1OC (centres undefined) 52.7

Indicate its recorded solubility kinetic; the compound in question is c1ccc(N2CCN(CC3CCCCC3)CC2)cc1 17

Quickly give me recorded solubility kinetic for Cc1ccccc1-c1nc(C(=O)NCC2CCCO2)cc2c1[nH]c1ccccc12 (centres undefined) 3.2

Identify measured solubility kinetic associated with Cc1c(NC(=O)c2ccc(-c3ccccc3)cc2)cccc1C(=O)O 42.3

Please give measured solubility kinetic of the following entry: Cc1cccc(C(=O)NC(=S)NC(C)c2ccccc2)c1 (centres undefined) 1

* * *

- Experimental Conditions: buffer; pH 7.4; 200.0 µM
What log10(solubility kinetic) was measured for each of the following?
Hi team, quick reminder: these entries are log10 of solubility kinetic (µg/mL).

Name the recorded log10(solubility kinetic) of the item CCCCNC(=S)N1CCn2cccc2C1c1ccccc1 (configuration not stated) in your answer. 0.74

Please give measured log10(solubility kinetic) of the following entry: O=Cc1cn(CC(=O)N2CCc3ccccc32)c2ccccc12 -0.40

# return recorded log10(solubility kinetic) for entry COc1ccc(CCC(=O)NCCc2nc3ccccc3[nH]2)cc1 0.94

Provide measured log10(solubility kinetic) value, entry: O=C(COc1cccnc1[N+](=O)[O-])c1ccc(Cl)s1 1.57

Please supply the value of reported log10(solubility kinetic) for the item COc1ccc(NC(=O)Nc2c[nH]c(=O)[nH]c2=O)cc1OC 1.65

Specify log10(solubility kinetic) for C/C(=C\c1ccccc1)C(=O)Nc1ccc(Cl)cn1 and stop. 0.86

Could you please provide reported log10(solubility kinetic) for CC1CCCCN1C(=O)COc1ccc2ccc(=O)oc2c1 (configuration not stated) ? Thanks! 1.56

* * *

- Experimental Conditions: buffer; pH 7.4; 200.0 µM
Quantity: solubility kinetic

Supply recorded solubility kinetic for O=C1CN(C(=O)NCC(=O)N2CCCC2)c2ccccc2N1 here. > 45.3 µg/mL

Input COc1ccc(NC(=O)CN2CCc3ccccc3C2)c([N+](=O)[O-])c1 , output reported solubility kinetic. 1.8 µg/mL

Kindly indicate its recorded solubility kinetic. Item: Cc1ccc(S(=O)(=O)NC(=O)Nc2cc(C(C)(C)C)on2)cc1 > 50.6 µg/mL

Report solubility kinetic for CSCC(=O)Nc1cc(C)on1 > 27.9 µg/mL

Give solubility kinetic for the following molecule: CCS(=O)(=O)Nc1cc2c3c(c1)CCC(=O)N3CCC2 > 44.2 µg/mL

Please report the measured solubility kinetic for O=C(Nc1ccon1)c1ccc(Br)s1 5.5 µg/mL

* * *

- Experimental Conditions: buffer; pH 7.4; 200.0 µM
Quantity: solubility kinetic

Quote solubility kinetic reported for CCOC(=O)CN1C(=O)NC2(CCCc3ccccc32)C1=O (stereo unspecified) please. > 45.3 µg/mL

Determine its reported solubility kinetic: CCc1c(C)c2ccc(O)c(CN3CCCC3)c2oc1=O 41.6 µg/mL

For the compound O=C(Nc1ccc(F)cc1)c1cc(Cl)sc1Cl , give its reported solubility kinetic. 1.9 µg/mL

Read the entry CC(C)[C@H](Nc1ncnc2c1oc1ccccc12)C(=O)O and write its reported solubility kinetic. > 42.8 µg/mL

Entry C=CCN=C1S/C(=C/c2ccc([N+](=O)[O-])cc2)C(=O)N1CC=C needs its solubility kinetic filled in; supply it. < 0.2 µg/mL

Give solubility kinetic for COc1ccc(/C=N/N2CCOCC2)cc1Cn1cc([N+](=O)[O-])cn1 > 51.8 µg/mL

Look up and report measured solubility kinetic for this entry: CCCCC(CC)C(=O)Nc1ncc([N+](=O)[O-])s1 (stereo unspecified) > 40.7 µg/mL

For CCC1Oc2ccccc2N(CC(=O)NC2CC2)C1=O (stereo unspecified) , write its solubility kinetic. > 41.1 µg/mL

Answer with the recorded solubility kinetic for the compound listed here: COCc1cc(=O)oc2cc(NS(=O)(=O)c3ccc(C)cc3)ccc12 1.3 µg/mL

Write down solubility kinetic measured for item CCC(C(=O)OC(C)C(=O)Nc1ccc(Cl)cn1)c1ccccc1 (stereo unspecified) 16.9 µg/mL

Please list solubility kinetic recorded for the compound COc1ccc(Cl)cc1NC(=O)CN(C)CC(=O)NCc1ccc(F)cc1 > 59.1 µg/mL

* * *

Can you tell me solubility kinetic for the items I'm about to list?
- Experimental Conditions: buffer; pH 7.4; 200.0 µM

Please list solubility kinetic recorded for the molecule O=C(Nc1ccc2c(c1)CCC2)c1ncoc1-c1ccccc1F < 0.0003 mg/mL

For the molecule O=C1CCc2ccc(NS(=O)(=O)c3ccc(F)cc3)cc2N1 , give its measured solubility kinetic value. > 0.0481 mg/mL

State, in one line, measured solubility kinetic of CCc1ccccc1NC(=O)CC1SCCNC1=O (stereo unspecified) > 0.0418 mg/mL

Note solubility kinetic for the molecule shown: CCC(C)(NC(=O)c1ccccn1)C(=O)NC1CCCC1 (stereo unspecified) > 0.0434 mg/mL

# return recorded solubility kinetic for entry COC(=O)c1ccc(C2SCC(=O)N2Cc2ccccc2)cc1 (stereo unspecified) 0.0373 mg/mL

Give the measured solubility kinetic for O=c1[nH]c2cccc(F)c2n2cccc12 0.0032 mg/mL

* * *

- Experimental Conditions: buffer; pH 7.4; 200.0 µM
Entries are grouped by solubility kinetic into these classes: lower range: < 4 µg/mL; middle range: ≥ 4 µg/mL and < 30 µg/mL; upper range: ≥ 30 µg/mL

Which of the defined bands does the recorded solubility kinetic of Cc1ccc(OCCC(=O)OCC(=O)Nc2cc(C)cc(C)c2)cc1 sit within? middle range

Using the reported solubility kinetic, which band applies to COc1cccc(NC(=O)C2COc3ccccc3O2)c1 (centres undefined) ? upper range

Lab note: sort Cc1ccc(Nc2nc(C)cc(C)c2C(N)=O)c(C)c1 into the matching solubility kinetic band. upper range

Would you mind sorting CC(=O)Nc1ccc(/C=C/c2nc3ccccc3o2)cc1 into the appropriate category? middle range

Kindly state the category for this compound: CC1CCN(C(=O)CSCC(=O)O)CC1 upper range

Any idea which band CCOc1ccc(C2NC(=O)NC(C)=C2[N+](=O)[O-])cc1OC (centres undefined) is in? upper range

Hey, which category is Cc1ccc2[nH]c(C)c(CCNC(=O)c3c(N)no[n+]3[O-])c2c1 in, do you know? middle range

Just checking, what class would you give O=C(c1ccc(Cl)c([N+](=O)[O-])c1)N1CCCc2ccccc21 here? middle range

Category of O=C(O)CCc1ccc(-c2ccccc2)n1-c1ccc(C(=O)O)cc1 : upper range

Dear colleague, I would appreciate it if you could identify the bin for CCC(C)[C@H](NC(=O)Nc1ccc(C)cc1C)C(=O)O (some centres undefined) and reply at your convenience. upper range

Hi there! Could you help me figure out the category for CCN(C(=S)NC(=O)C1CC1)c1ccccc1 please? upper range

// return the class label for CCc1c(C#N)sc(C(N)=O)c1CC upper range

Where would COc1ccc(C(=O)NC(=S)N2CC(C)OC(C)C2)cc1OC (centres undefined) land among the classes by reported solubility kinetic? upper range

GET /class?item= COc1cccc(CC(=O)Nc2nc(-c3ccc(F)c(F)c3)cs2)c1 lower range

Could you tell me which band CCN(CC)S(=O)(=O)c1cccc(C(=O)N[C@H](C(=O)NC2=NCCS2)C(C)C)c1 belongs to? upper range

# bin label for CCS(=O)(=O)c1ncc(Cl)c(C(=O)Nc2ccccc2OC)n1 lower range

Classify this compound: CC1CCN(C(=O)CN2C(=O)COc3ccc(Cl)cc32)CC1 upper range

// return the class label for CC(C)=C(NC(=O)c1ccccc1)C(=O)Nc1cccc(C(=O)O)c1 upper range

Note: place this compound into its band. Item: CC(C)CN1CCC(CN(C)Cc2nc(-c3cnccn3)no2)CC1 upper range

State the band of Cl.O=C(OCCN1CCCCC1)c1cccc(Cl)c1 upper range

Lab note: sort O=C(O)CNC(=O)/C=C/c1ccc(Cl)cc1Cl into the matching solubility kinetic band. upper range

GET /class?item= CCS(=O)(=O)Nc1ccc2[nH]c(=O)[nH]c2c1 upper range

Exercise: read the entry N#CC(C#N)=Cc1ccc(N2CCOCC2)cc1 and state which class it falls under. middle range

Which bin should I file COc1ccccc1N(C)S(=O)(=O)c1ccc(C(=O)Nc2cccc(Br)c2)cc1 under? lower range

Class? Entry: CCCCCCCCCCCC(=O)N1CC(=O)NC(=O)C1 lower range

Which bin, given its solubility kinetic, does CCCN(C(=O)Cc1coc2cc(OC)ccc12)C1CCS(=O)(=O)C1 (centres undefined) occupy? upper range

Just checking, what class would you give COc1ccc(C(=O)NCCc2cnc[nH]2)cc1OC here? upper range

Hi there! Could you help me figure out the category for Cc1ccccc1OCC(=O)Nc1cccc(Cl)c1C please? lower range

Pick a category. Item: CC(OC(=O)C1CCC1)C(=O)Nc1cc(Cl)cc(Cl)c1 (centres undefined) lower range

Form field 'band' for CN(C)c1ccc(CNc2ccccn2)cc1 middle range

Textbook exercise: identify the category of the compound given here, O=C(OCCN=C1NS(=O)(=O)c2ccccc21)c1cccc([N+](=O)[O-])c1 , according to its measured value. lower range

Kindly identify the class of CCn1cc(C(=O)NCc2ccco2)c(=O)c2ccc(C)nc21 . lower range

Lab log: Cc1cc(C(=O)NCCc2ccc(Cl)cc2)no1 — assign solubility kinetic category middle range

Into which bin does this compound go? Cc1ccc(S(=O)(=O)NC(=O)Nc2cc(C)no2)cc1 upper range

Which bin, given its solubility kinetic, does CC(C)CCn1c(N2CCCC2)nc2c1c(=O)n(C)c(=O)n2C occupy? upper range

Please report the category associated with O=C(Nc1ccc2c(c1)OCCO2)c1cc(F)c(F)cc1Cl , nothing else. lower range

Class (by measured solubility kinetic) for Cn1cc(C(=O)OCC(=O)N2CCCCC2)c2ccccc21 upper range

Which bin should I file O=C(NCc1cccnc1)C1CCC(c2ccc(Cl)cc2)CC1 (centres undefined) under? middle range

Band for CC(=O)C1=C(O)C(=O)N(c2ccc(O)cc2)C1c1ccc(F)cc1 (centres undefined) ? upper range

Which solubility kinetic category applies to O=C(Nc1ccccc1)C1CCCCN1S(=O)(=O)c1ccccc1 (centres undefined) here? upper range

Into which category would you place COC(=O)c1ccccc1-n1c(C)nc(=O)c(-c2ccccc2)c1C ? upper range

Which category does the recorded solubility kinetic put CC(C)CNS(=O)(=O)c1cc(C(=O)O)c(Cl)cc1Cl in? upper range

Band for Cc1ccc(C(CNC(=O)c2ccco2)N2CCN(C)CC2)cc1 (centres undefined) ? upper range

Which class is correct for the following compound? O=c1ccc(-c2nc3ccccc3n2Cc2ccc(Cl)cc2)c[nH]1 upper range

Place this compound in its band: O=C(O)c1ccccc1NC(=O)N1CCOCC1 upper range

// return the class label for CCCN(C(=O)c1cn(C)c(=O)c2ccccc12)c1ccccc1C upper range

Kindly state the category for this compound: O=C(NCCC(=O)N1CCCC1)c1ccccc1Cl upper range

Note: place this compound into its band. Item: COc1cccc(CNc2nccs2)c1O upper range
